system: HaCaT; test: Cytotoxicity against human HaCat cells assessed as reduction in cell growth incubated for 72 hrs by MTT assay; assay type: cell-based
pIC50: −log10 of the molar value.
// map pIC50 to label using category 1 (below 6), category 2 (6 to below 9), category 3 (9 or more)

# Sample smiles, Qualitative label
measured = [
    ("C=C1c2cc3c(cc2OC1(F)F)[C@@H](NC(C)=O)CCc1cc(OC)c(OC)c(OC)c1-3", "category 3"),
    ("COc1cc2c(c(OC)c1OC)-c1cc3c(cc1[C@@H](NC(C)=O)CC2)OC/C3=C(\\C)CCC=C(C)C", "category 1"),
    ("CC/C=C1/COc2cc3c(cc21)-c1c(cc(OC)c(OC)c1OC)CC[C@@H]3NC(C)=O", "category 2"),
    ("C/C=C1/COc2cc3c(cc21)-c1c(cc(OC)c(OC)c1OC)CC[C@@H]3NC(C)=O", "category 2"),
]

Exam item: Would you mind sorting COc1cc2c(c(OC)c1OC)-c1cc3c(cc1[C@@H](NC(C)=O)CC2)OCC3=C(C)C into the appropriate category?
Marked response: category 2

Exam item: Record COc1cc2c(c(OC)c1OC)-c1cc3c(C)coc3cc1[C@@H](NC(C)=O)CC2 — which class?
Marked response: category 3

Exam item: # bin label for C=C1COc2cc3c(cc21)-c1c(cc(OC)c(OC)c1OC)CC[C@@H]3NC(C)=O
Marked response: category 3

Exam item: Dear colleague, I would appreciate it if you could identify the bin for COc1cc2c(c(OC)c1OC)-c1cc3c(cc1[C@@H](NC(C)=O)CC2)OC/C3=C\c1ccccc1 and reply at your convenience.
Marked response: category 1

Exam item: Classify this molecule: COc1cc2c(c(OC)c1OC)-c1ccc(OC)c(=O)cc1[C@@H](NC(C)=O)CC2
Marked response: category 3
